Experiment: viability gain of MRP-1-high H69AR cells under doxorubicin, pilot screen, MRP-1 activator project, CellTiter-Glo, duplicate (AID 807);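 also: compound pretreatment 18-22 h then 72 h combined with doxorubicin; 0% = doxorubicin alone and 100% = vehicle without doxorubicin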
Settings: H69AR viability with doxorubicin, CellTiter-Glo luminescence; at 10 µM; stronger effect = higher value
ENDPOINT: viability increase (%)
Could you give me the number in %? Just the number is fine.

For the compound CCOC(=O)N1CCN(C(=O)CNS(=O)(=O)c2cccs2)CC1 , what viability increase is on record?
-2.69

For the compound CCN1CCN(C(=O)c2cc3c(=O)oc4ccc(C)cc4c3s2)CC1 , what viability increase is on record?
-2.18

For the compound NC(=O)C1CCN(c2nc(C3CC3)nc3c2nnn3Cc2ccccc2Cl)CC1 , what viability increase is on record?
-6.11

For the compound C=C(C)CSc1nc2c(c(=O)[nH]c(=O)n2C)n1CCC(C)C , what viability increase is on record?
-2.5

For the compound CC(=O)c1cccc(NC(=O)CN(c2ccc(F)cc2)S(C)(=O)=O)c1 , what viability increase is on record?
-3.2

For the compound c1ccc(-c2csc3ncn4cnnc4c23)cc1 , what viability increase is on record?
-1.06

For the compound COC(=O)c1ccc2c(c1)N(C)CCS2 , what viability increase is on record?
-0.04

For the compound Cn1nnnc1SCC(=O)c1ccco1 , what viability increase is on record?
-3.23

For the compound O=C(Cn1cnc2c(cnn2-c2ccccc2)c1=O)NC1CCCC1 , what viability increase is on record?
1.03

For the compound Cc1oc2cc(O)ccc2c(=O)c1N1C(=O)c2ccccc2C1=O , what viability increase is on record?
1.85

For the compound O=C(CCc1ccccc1)N1CCN(CCO)CC1 , what viability increase is on record?
0.6

For the compound CCCc1ccc(Oc2c(-c3ccc(O)c(C)c3O)n[nH]c2C)cc1 , what viability increase is on record?
-2.16

For the compound O=C(O)C1CCCCC1C(=O)NCc1cn2ccccc2n1 (centres undefined) , what viability increase is on record?
-1.38

For the compound Cc1ccccc1C(=O)N1CCC(C(=O)Nc2cccc(F)c2)CC1 , what viability increase is on record?
-0.02

For the compound CCOC(=O)c1ccc(Nc2cc(C)nc(-c3ccccc3O)n2)cc1 , what viability increase is on record?
1.42

For the compound COc1cccc(C2C(C(=O)c3ccco3)=C(O)C(=O)N2CCCN2CCOCC2)c1OC (centres undefined) , what viability increase is on record?
-3.37

For the compound COc1ccc(S(=O)(=O)Cc2ccc(C(=O)N3CCN(C4CCCCC4)CC3)o2)cc1 , what viability increase is on record?
-2.58

For the compound CCOc1ccc(NC(=O)CSc2nnc(-c3ccccc3)n2N)cc1 , what viability increase is on record?
-6.71

For the compound Nc1ncnc2c1ncn2C1CCC(CO)C(O)C1 (centres undefined) , what viability increase is on record?
-3.38

For the compound COc1ccccc1N(CC(=O)Nc1ccccc1C(=O)NC(C)C)S(C)(=O)=O , what viability increase is on record?
-0.99

For the compound C(=N\c1nccs1)/c1c[nH]c2ccccc12 , what viability increase is on record?
-4.92

For the compound N#Cc1cccc(NC(=O)NCCc2c[nH]c3ccccc23)c1 , what viability increase is on record?
-4.55

For the compound CCOC(=O)CNC(=O)CSc1nnc(-c2ccco2)n1Cc1ccco1 , what viability increase is on record?
-2.83

For the compound CCOC(=O)Nc1cc(C)c(Cl)cc1OC , what viability increase is on record?
-2.98

* * *

Test: RAM signaling pathway blockade in yeast – S. cerevisiae, Pdr1DBD-CYC8 efflux-inhibited sensitized strain, primary screen (AID 1298);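 also: 0% = DMSO untreated cells without growth and 100% = 10 µM 1-NA-PP1 full growth; higher means more yeast growth rescued from 5-FOA killing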
Settings: S. cerevisiae cbk1-as DSE1-URA3 strain, 5-FOA growth OD615, 2 d; at 50 µM; stronger effect = higher value
For each entry below, report its RAM network inhibition value.
Could you give me the number in %? Just the number is fine.

For the molecule N#Cc1cn(CC(=O)NCC2CCCO2)c2ccccc12 (stereo unspecified) , what RAM network inhibition is on record?
5.31

For the molecule CCn1c(=O)c(=O)[nH]c2cc(C(=O)NC3CCCc4ccccc43)ccc21 (stereo unspecified) , what RAM network inhibition is on record?
3.67

For the molecule COc1cc(S(=O)(=O)N2CCCCCC2)c(OC)cc1Br , what RAM network inhibition is on record?
5.23

For the molecule Cc1cc2cc(CNC(=O)c3ccc(Br)o3)ccc2n1C , what RAM network inhibition is on record?
9.25

For the molecule CCNC(=O)CN(Cc1ccccc1)S(=O)(=O)c1ccccc1 , what RAM network inhibition is on record?
1.94

For the molecule CCCCCn1c(=O)[nH]c2cc(C(=O)NCCCN(CC)CC)ccc2c1=O , what RAM network inhibition is on record?
3.74

For the molecule COc1ccc(N(CC(=O)Nc2ccc3c(c2)OCCO3)S(=O)(=O)c2c(C)nn(C)c2C)cc1 , what RAM network inhibition is on record?
4.15

For the molecule COc1ccc(S(=O)(=O)NCCSc2ccc(C)cc2)cc1OC , what RAM network inhibition is on record?
2.65

For the molecule CCCSC1=C(C#N)C(c2ccc(Cl)cc2Cl)CC(=O)N1 (stereo unspecified) , what RAM network inhibition is on record?
3.58

For the molecule Cc1sc(NC(=O)CCCC(=O)O)c(C#N)c1C , what RAM network inhibition is on record?
3.31

For the molecule COc1ccc(S(=O)(=O)N(CC(=O)Nc2ccc3c(c2)OCO3)c2ccccc2OC)cc1 , what RAM network inhibition is on record?
6.05

* * *

Experiment: growth suppression of PTEN-deleted HCT116, pilot screen, cell-based, HCT116 clonal line, CellTiter-Glo (AID 824);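 also: 0% = 20 µM Hyamine control and 100% = vehicle cell control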
Conditions: 60 h, at 10 µM
Inconclusive results are not listed. Activity calls are given as the source filed them.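 How the source made its calls: active means viability at or below 27.92% in each of two runs, the all-compound median minus 4 SD; inconclusive means no clear call, values can overlap the other calls; inactive means the rest.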
Reply using exactly one outcome from active, inactive

Entry COc1cccc(OCCOc2cccc(/C=N/n3cnnc3)c2)c1 : call = ?
inactive

Entry O=C(c1cc2ccccn2n1)N1CCCC1 : call = ?
inactive

Entry COc1cc(S(=O)(=O)N2CCN(Cc3ccc4c(c3)OCO4)CC2)c(C)cc1C : call = ?
inactive

Entry O=C(CSc1oc(-c2ccco2)nc1S(=O)(=O)c1ccc(Cl)cc1)NCC1CCCO1 (centres undefined) : call = ?
inactive

Entry O=C(Nc1nc2ccccc2n1CCN1CCCC1)c1ccc(Cl)cc1 : call = ?
inactive

Entry O=C(O)CNS(=O)(=O)c1ccc(F)cc1 : call = ?
inactive

Entry CCN1C=C(C(=O)OC)C(c2cccc(C)c2)C(C(=O)OC)=C1 : call = ?
inactive

Entry CCC(C)[C@@H](C(=O)Nc1ccc2c(c1)OCO2)N1Cc2ccccc2C1=O (some centres undefined) : call = ?
inactive

Entry COC(=O)C1C(=O)C=C(N2CCOCC2)CC1(C)C (centres undefined) : call = ?
inactive

Entry C=CCn1c(SCCCc2ccccc2)nc2c1c(=O)[nH]c(=O)n2C : call = ?
inactive

Entry COc1ccc(-c2cc3ccccc3n2CC(O)CN2CCN(CCO)CC2)cc1 (centres undefined) : call = ?
inactive

Entry O=C(NCc1nc2ccccc2[nH]1)c1cccs1 : call = ?
inactive

Entry CCOc1ccc2nc(N3CCC(C(=O)N4CCN(c5ncccn5)CC4)CC3)sc2c1 : call = ?
inactive

Entry CN(CC1CCCO1)S(=O)(=O)c1ccc(C(=O)Nc2nc3cc4c(cc3s2)OCO4)cc1 (centres undefined) : call = ?
inactive

Entry O=C1CC(N2CCN(C(c3ccccc3)c3ccccc3)CC2)C(=O)N1 (centres undefined) : call = ?
inactive

Entry COc1ccc(C)cc1Nc1cc(C)nc2nc(C)nn12 : call = ?
inactive

Entry O=C(CNS(=O)(=O)c1cccc2nsnc12)NCc1ccc(Cl)cc1 : call = ?
inactive

Entry CCOC(=O)CN1CC23C=CC(O2)C(C(=O)O)C3C1=O (centres undefined) : call = ?
inactive

Entry CC(C)(CC(=O)O)Cc1nc(-c2ccc(Cl)cc2)no1 : call = ?
inactive

Entry Cc1ccccc1CN1CCN(CC(=O)NCc2ccccn2)C1=O : call = ?
inactive

Entry O=C1CC(N2CCN(c3nc4ccccc4s3)CC2)C(=O)N1c1ccc(F)cc1 (centres undefined) : call = ?
inactive

Entry N#Cc1ccc(N2CCN(C(=O)c3cccc(F)c3)CC2)c(F)c1 : call = ?
inactive

Entry Fc1cc2nc(-c3ccncc3)[nH]c2cc1F : call = ?
inactive

Entry CCCCn1c(NC(=O)c2ccccc2)nc2ccccc21 : call = ?
active

* * *

Assay: growth suppression of PTEN-deleted HCT116, pilot screen, cell-based, HCT116 clonal line, CellTiter-Glo (AID 824);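 also: 0% = 20 µM Hyamine control and 100% = vehicle cell control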
Settings: 60 h, at 10 µM, stronger effect = lower value
Results filed as inconclusive are left out.
ENDPOINT: viability (%)
Could you give me the number in %? Just the number is fine.

For the molecule CCOc1ccc(S(=O)(=O)N(C)c2ccc(OCC(=O)Nc3ccc4[nH]c(=O)[nH]c4c3)cc2)cc1 , what viability is on record?
94.1

For the molecule COc1ccc(-n2nnc3c(=O)n(CC(=O)N4CCCc5ccccc54)cnc32)cc1 , what viability is on record?
91.2

For the molecule O=C(Nc1ccc(N2CCCC2)c(Cl)c1)c1ccc(Br)o1 , what viability is on record?
79.2

For the molecule c1cncc(CNc2nc(N3CCOCC3)nc(N3CCOCC3)n2)c1 , what viability is on record?
91.8

For the molecule CSc1nnc2c(n1)OC(c1cn(C)c3ccccc13)N(C(C)=O)c1ccccc1-2 (stereo unspecified) , what viability is on record?
98.9

For the molecule O=C(Nc1cccnc1)c1ccccc1F , what viability is on record?
103

For the molecule COCCCN(C(=O)Nc1ccc(C)c(C)c1)C(C)c1ccccn1 (stereo unspecified) , what viability is on record?
89.8

For the molecule NC(=O)CSc1nnc(Cn2c(=O)sc3ccccc32)n1-c1ccccc1 , what viability is on record?
96.8

For the molecule CCOc1ccc(CC(=O)NCc2cn3c(C)csc3n2)cc1 , what viability is on record?
102

For the molecule CCc1c(C)sc(NC(=O)C2CCCCC2C(=O)O)c1C(N)=O (stereo unspecified) , what viability is on record?
101

For the molecule COc1ccc(C2CCCN2C(=O)Nc2ccc(F)cc2)cc1OC (stereo unspecified) , what viability is on record?
88.2
